# experiment: Human whole blood stability
# Type: in vitro ADME
# measurement.parameters: percent remaining, 1 μM, 37° C.
readout.kind: Human whole blood stability at 4 hr

[
  {
    "compound": "COC/C=C/C(=O)N1CC[C@H](n2ncc3c(O[C@@H](C)[C@@H]4CCCN4C)nc4c(F)c(-c5cccc6cccc(C#N)c56)c(Cl)cc4c32)C[C@H]1CC#N [Example 6b]",
    "Human whole blood stability at 4 hr": "††† (WBS >90%)"
  },
  {
    "compound": "CC#CC(=O)N1CC[C@H](n2ncc3c(O[C@@H](C)[C@@H]4CCCN4C)nc4c(F)c(-c5nccc6cccc(C#N)c56)c(Cl)cc4c32)C[C@H]1CC#N (single isomer, unassigned) [Example 1a]",
    "Human whole blood stability at 4 hr": "††† (WBS >90%)"
  },
  {
    "compound": "CC#CC(=O)N1CC[C@H](n2ncc3c(O[C@@H](C)[C@@H]4CCCN4C)nc4c(F)c(-c5cccc6cccc(C#N)c56)c(C)cc4c32)C[C@H]1CC#N (single isomer, unassigned) [Example 7]",
    "Human whole blood stability at 4 hr": "†† (WBS >70% but ≤90%)"
  },
  {
    "compound": "COC/C=C/C(=O)N1CC[C@H](n2ncc3c(O[C@@H](C)[C@@H]4CCCN4C)nc4c(F)c(-c5nccc6cccc(C#N)c56)c(Cl)cc4c32)C[C@H]1CC#N [Example 2a]",
    "Human whole blood stability at 4 hr": "††† (WBS >90%)"
  },
  {
    "compound": "C=C(F)C(=O)N1CC[C@H](n2ncc3c(O[C@@H](C)[C@@H]4CCCN4C)nc4c(F)c(-c5nccc6cccc(C#N)c56)c(Cl)cc4c32)C[C@H]1CC#N (single isomer, unassigned) [Example 3a]",
    "Human whole blood stability at 4 hr": "††† (WBS >90%)"
  }
]

Name the recorded Human whole blood stability at 4 hr of the item C=C(F)C(=O)N1CC[C@H](n2ncc3c(N4CC(N(C)CC)C4)nc4c(F)c(-c5c(C)c(C)cc6[nH]ncc56)c(Cl)cc4c32)C[C@H]1CC#N (single isomer, unassigned) [Example 4a] in your answer.
†† (WBS >70% but ≤90%)

====

# assay.target: KRAS G12C (Homo sapiens, UniProt P01116, G12C)
# Sequence (P01116 1-188 isoform P01116-2 G12C): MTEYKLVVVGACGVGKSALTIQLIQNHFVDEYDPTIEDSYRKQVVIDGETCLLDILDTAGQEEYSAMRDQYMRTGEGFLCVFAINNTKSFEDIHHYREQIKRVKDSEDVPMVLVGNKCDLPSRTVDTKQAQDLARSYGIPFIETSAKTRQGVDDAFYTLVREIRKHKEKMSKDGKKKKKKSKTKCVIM
# experiment: GDP-GTP exchange assay (KRAS_G12C exchange assay)
# measurement.parameters: bodipy-loaded KRAS G12C, SOS1, GppNHp; 2 hours pre-incubation with inhibitor; read-out: G12C_exchange
# Experimental: The inhibitor potency of the exemplified compounds was determined in a fluorescence based guanine nucleotide exchange assay, which measures the exchange of bodipy-GDP (fluorescently labeled GDP) for GppNHp (Non-hydrolyzable GTP analog) to generate the active state of KRAS in the presence of SOS1 (guanine nucleotide exchange factor). […] Fluorescence intensities were measured on a PheraStar plate reader instrument (BMG Labtech) with excitation at 485 nm and emission at 520 nm. […]
readout.kind: IC50

[
  {
    "compound": "C=C(F)C(=O)N1CC[C@H](n2ncc3c(O[C@@H](C)[C@@H]4CCCN4C)nc4c(F)c(-c5nccc6cccc(C#N)c56)c(Cl)cc4c32)C[C@H]1CC#N (single isomer, unassigned) [Example 3b]",
    "assay.target": "KRAS G12C (Homo sapiens, UniProt P01116, G12C)",
    "IC50": "0.1 to 1 µM"
  },
  {
    "compound": "C=C(F)C(=O)N1CC[C@H](n2ncc3c(O[C@@H](C)[C@@H]4CCCN4C)nc4c(F)c(-c5nccc6cccc(C#N)c56)c(Cl)cc4c32)C[C@H]1CC#N (single isomer, unassigned) [Example 3a]",
    "assay.target": "KRAS G12C (Homo sapiens, UniProt P01116, G12C)",
    "IC50": "≤ 0.1 µM"
  }
]

Supply reported IC50 belonging to this compound: COC/C=C/C(=O)N1CC[C@H](n2ncc3c(O[C@@H](C)[C@@H]4CCCN4C)nc4c(F)c(-c5cccc6cccc(C#N)c56)c(Cl)cc4c32)C[C@H]1CC#N
≤ 0.1 µM

Entry C=C(F)C(=O)N1CC[C@H](n2ncc3c(N4CC(N(C)CC)C4)nc4c(F)c(-c5c(C)c(C)cc6[nH]ncc56)c(Cl)cc4c32)C[C@H]1CC#N (single isomer, unassigned) [Example 4b] needs its IC50 filled in; supply it.
1 to 5 µM

Identify IC50 associated with the compound CC#CC(=O)N1CC[C@H](n2ncc3c(O[C@@H](C)[C@@H]4CCCN4C)nc4c(F)c(-c5nccc6cccc(C#N)c56)c(Cl)cc4c32)C[C@H]1CC#N (single isomer, unassigned) [Example 1b]
≤ 0.1 µM

====

# assay.target: KRAS G12C (Homo sapiens, UniProt P01116, G12C)
# experiment: GDP-GTP exchange assay (KRAS_G12C exchange assay)
# measurement.parameters: bodipy-loaded KRAS G12C, SOS1, GppNHp; 2 hours pre-incubation with inhibitor; read-out: G12C_exchange
pIC50: −log10 of the molar value.
readout.kind: pIC50

Solved entries (count: 2):
[
  {
    "molecule": "C=C(F)C(=O)N1CC[C@H](n2ncc3c(O[C@@H](C)[C@@H]4CCCN4C)nc4c(F)c(-c5cccc6cccc(C#N)c56)c(Cl)cc4c32)C[C@H]1CC#N (single isomer, unassigned) [Example 5a]",
    "readout.kind": "pIC50",
    "reading": "6.00 to 7.00"
  },
  {
    "molecule": "COC/C=C/C(=O)N1CC[C@H](n2ncc3c(O[C@@H](C)[C@@H]4CCCN4C)nc4c(F)c(-c5nccc6cccc(C#N)c56)c(Cl)cc4c32)C[C@H]1CC#N [Example 2a]",
    "readout.kind": "pIC50",
    "reading": "≥ 7.00"
  }
]

Shifting focus to the molecule that follows.
Specify pIC50 for CC#CC(=O)N1CC[C@H](n2ncc3c(O[C@@H](C)[C@@H]4CCCN4C)nc4c(F)c(-c5cccc6cccc(C#N)c56)c(C)cc4c32)C[C@H]1CC#N (single isomer, unassigned) [Example 7] and stop.
≥ 7.00

====

In this section we review reported pIC50 values for a set of molecules.
# assay.target: KRAS G12C (Homo sapiens, UniProt P01116, G12C)
# experiment: GDP-GTP exchange assay (KRAS_G12C exchange assay)
# measurement.parameters: bodipy-loaded KRAS G12C, SOS1, GppNHp; 2 hours pre-incubation with inhibitor; read-out: G12C_exchange
pIC50: −log10 of the molar value.

Some molecules with recorded pIC50:
[
  {
    "molecule": "C=C(F)C(=O)N1CC[C@H](n2ncc3c(N4CC(N(C)CC)C4)nc4c(F)c(-c5c(C)c(C)cc6[nH]ncc56)c(Cl)cc4c32)C[C@H]1CC#N (single isomer, unassigned) [Example 4a]",
    "pIC50": "≥ 7.00"
  },
  {
    "molecule": "C=C(F)C(=O)N1CC[C@H](n2ncc3c(O[C@@H](C)[C@@H]4CCCN4C)nc4c(F)c(-c5cccc6cccc(C#N)c56)c(Cl)cc4c32)C[C@H]1CC#N (single isomer, unassigned) [Example 5b]",
    "pIC50": "≥ 7.00"
  }
]

# next molecule below
Please look at CC#CC(=O)N1CC[C@H](n2ncc3c(O[C@@H](C)[C@@H]4CCCN4C)nc4c(F)c(-c5nccc6cccc(C#N)c56)c(Cl)cc4c32)C[C@H]1CC#N (single isomer, unassigned) [Example 1a] and tell me its recorded pIC50 on KRAS G12C (Homo sapiens, UniProt P01116, G12C).
≥ 7.00
